Taken from PubChem BioAssay AID1963431.

Tested on: Rh18 complex spheroid viability, percent test/control
Experiment: Anticancer human tumor Rh18 cell line growth inhibition [Asc]; active = viability on the fitted dose curve at most 10% of control; inactive = the rest;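 also: spheroids exposed to compound for 7 days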
Settings: second compound 1 µM; first compound 10 µM
One label from this list, please: Yes for active, No for inactive

Molecule	Class
C=C(F)C(=O)N1CCN(c2nc(OCC3CCCN3C)nc3c2CCN(c2cccc4cccc(Cl)c24)C3)CC1CC#N (stereo not given) + Cc1c(S(C)(=O)=O)c(-c2cc(F)cc(N3CCN(c4ccc(NS(=O)(=O)c5ccc(NC(CCN6CCC(C(=O)OCCCP(=O)(O)O)CC6)CSc6ccccc6)c(S(=O)(=O)C(F)(F)F)c5)cc4)CC3)c2)c(-c2ccc(Cl)cc2)n1C(C)C	Yes
O=C(c1cc(Cc2n[nH]c(=O)c3ccccc23)ccc1F)N1CCN(C(=O)C2CC2)CC1 + Cc1c(S(C)(=O)=O)c(-c2cc(F)cc(N3CCN(c4ccc(NS(=O)(=O)c5ccc(NC(CCN6CCC(C(=O)OCCCP(=O)(O)O)CC6)CSc6ccccc6)c(S(=O)(=O)C(F)(F)F)c5)cc4)CC3)c2)c(-c2ccc(Cl)cc2)n1C(C)C	Yes
C=CC(=O)N1CCN(c2nc(=O)n(-c3c(C)ccnc3C(C)C)c3nc(-c4c(O)cccc4F)c(F)cc23)C(C)C1 (stereo not given) + Cc1c(S(C)(=O)=O)c(-c2cc(F)cc(N3CCN(c4ccc(NS(=O)(=O)c5ccc(NC(CCN6CCC(C(=O)OCCCP(=O)(O)O)CC6)CSc6ccccc6)c(S(=O)(=O)C(F)(F)F)c5)cc4)CC3)c2)c(-c2ccc(Cl)cc2)n1C(C)C	Yes
C=CC(=O)N1CCN(c2nc(=O)n(-c3c(C)ccnc3C(C)C)c3nc(-c4c(O)cccc4F)c(F)cc23)C(C)C1 (stereo not given) + CNC(C)C(=O)NC1CN(S(=O)(=O)c2cccc(S(=O)(=O)N3CCC4CCC(C(=O)NC(c5ccccc5)c5ccccc5)N4C(=O)C(NC(=O)C(C)NC)C3)c2)CCC2CCC(C(=O)NC(c3ccccc3)c3ccccc3)N2C1=O	No

Next item in the queue.
Problem: What classification did C#Cc1c(F)ccc2cc(O)cc(-c3ncc4c(N5CC6CCC(C5)N6)nc(OCC56CCCN5CC(F)C6)nc4c3F)c12 (stereo not given) + CNC(C)C(=O)NC1CN(S(=O)(=O)c2cccc(S(=O)(=O)N3CCC4CCC(C(=O)NC(c5ccccc5)c5ccccc5)N4C(=O)C(NC(=O)C(C)NC)C3)c2)CCC2CCC(C(=O)NC(c3ccccc3)c3ccccc3)N2C1=O end up with in this test?
Result: No
